Where do the numbers come from? From PubChem BioAssay (NCI).

Tested on: M14 melanoma
Experiment: NCI tumour cell line growth inhibition, 48 h
measuredEndpoint: TGI (µM)
Report only the number, with the unit µM understood.

Query block: Fill blank: measured TGI of the molecule `O=C(NO)c1ccc(CNc2cccc3nc(C4CC4)n(-c4ccccc4)c(=O)c23)cc1` is ____.
Result block: 4.14

Query block: Fill blank: measured TGI of the molecule `OCc1ccc(N2CCc3ccc(F)cc3C2)cc1Cl` is ____.
Result block: 30

Query block: Fill blank: measured TGI of the molecule `CN(C)CCNC(=O)c1cccc2c1nc(-c1cccnc1)c1ccccc12` is ____.
Result block: 19.9

Query block: Fill blank: measured TGI of the molecule `C=CCN1C(=O)NC(=O)/C(=C/c2c3ccccc3cc3ccccc23)C1=O` is ____.
Result block: 37.2

Query block: Fill blank: measured TGI of the molecule CC1OC(OC2C(OC(=O)[C@]34CCC(C)(C)C[C@H]3C3=CC[C@@H]5[C@@]6(C)CC[C@H](OC7OC(CO)C(O)C(O)C7OC7OC(CO)C(O)C(O)C7O)C(C)(C)[C@@H]6CC[C@@]5(C)[C@]3(C)CC4)OCC(O)C2O)C(O)C(O)C1OC1OCC(O)C(O)C1O (stereo partly drawn) is ____.
Result block: 16.7

Query block: Fill blank: measured TGI of the molecule `COc1ccccc1CNCCCN1C(=O)c2ccc3c4c(ccc(c24)C1=O)C(=O)N(CCCNCc1ccccc1OC)C3=O` is ____.
Result block: 0.337
